I'd be grateful if you could share measured # Sites in PHH for these entries.
System: off-target integration sites
measurementProtocol: Off-target oligo insertion based assay in primary human hepatocytes (Table 30)
Assay type: cell-based
conditions: TTR sgRNAs in PHH, 100 ng Cas9 mRNA, 25 nM sgRNA, 12.5 nM donor oligo
Strand notation (5' to 3'): a small letter for the sugar, then the base; units joined by * are phosphorothioate-linked, units joined directly phosphodiester-linked; [ ] holds rarer units or linkages, { } end groups; capitals alone tell only the bases. m = 2'-O-methyl; r = 2'-OH (RNA)
Answers are plain numbers.

molecule	# Sites in PHH
G000495: TTR sgRNA modified sequence, Human, SEQ ID No. 102; guide sequence of CR003343 (nucleic acid) guide: mC*mA*mG*rArGrGrArCrArCrUrUrGrGrArUrUrCrArCrGrUrUrUrUrArGrAmGmCmUmAmGmAmAmAmUmAmGmCrArArGrUrUrArArArArUrArArGrGrCrUrArGrUrCrCrGrUrUrArUrCrAmAmCmUmUmGmAmAmAmAmAmGmUmGmGmCmAmCmCmGmAmGmUmCmGmGmUmGmCmU*mU*mU*mU	1
G000488: TTR sgRNA modified sequence, Human, SEQ ID No. 95; guide sequence of CR003346 (nucleic acid) guide: mA*mA*mA*rGrUrUrCrUrArGrArUrGrCrUrGrUrCrCrGrGrUrUrUrUrArGrAmGmCmUmAmGmAmAmAmUmAmGmCrArArGrUrUrArArArArUrArArGrGrCrUrArGrUrCrCrGrUrUrArUrCrAmAmCmUmUmGmAmAmAmAmAmGmUmGmGmCmAmCmCmGmAmGmUmCmGmGmUmGmCmU*mU*mU*mU	0
G000570: TTR sgRNA modified sequence, Human, SEQ ID No. 111; guide sequence of CR003347 (nucleic acid) guide: mC*mA*mU*rUrGrArUrGrGrCrArGrGrArCrUrGrCrCrUrGrUrUrUrUrArGrAmGmCmUmAmGmAmAmAmUmAmGmCrArArGrUrUrArArArArUrArArGrGrCrUrArGrUrCrCrGrUrUrArUrCrAmAmCmUmUmGmAmAmAmAmAmGmUmGmGmCmAmCmCmGmAmGmUmCmGmGmUmGmCmU*mU*mU*mU	1
G000486: TTR sgRNA modified sequence, Human, SEQ ID No. 93; guide sequence of CR003339 (nucleic acid) guide: mA*mC*mA*rCrArArArUrArCrCrArGrUrCrCrArGrCrArGrUrUrUrUrArGrAmGmCmUmAmGmAmAmAmUmAmGmCrArArGrUrUrArArArArUrArArGrGrCrUrArGrUrCrCrGrUrUrArUrCrAmAmCmUmUmGmAmAmAmAmAmGmUmGmGmCmAmCmCmGmAmGmUmCmGmGmUmGmCmU*mU*mU*mU	0
G000567: TTR sgRNA modified sequence, Human, SEQ ID No. 109; guide sequence of CR003352 (nucleic acid) guide: mG*mA*mA*rArGrGrCrUrGrCrUrGrArUrGrArCrArCrCrGrUrUrUrUrArGrAmGmCmUmAmGmAmAmAmUmAmGmCrArArGrUrUrArArArArUrArArGrGrCrUrArGrUrCrCrGrUrUrArUrCrAmAmCmUmUmGmAmAmAmAmAmGmUmGmGmCmAmCmCmGmAmGmUmCmGmGmUmGmCmU*mU*mU*mU	0

Next up:
In plain terms, G000489: TTR sgRNA modified sequence, Human, SEQ ID No. 96; guide sequence of CR003344 (nucleic acid) guide: mU*mU*mU*rGrArCrCrArUrCrArGrArGrGrArCrArCrUrGrUrUrUrUrArGrAmGmCmUmAmGmAmAmAmUmAmGmCrArArGrUrUrArArArArUrArArGrGrCrUrArGrUrCrCrGrUrUrArUrCrAmAmCmUmUmGmAmAmAmAmAmGmUmGmGmCmAmCmCmGmAmGmUmCmGmGmUmGmCmU*mU*mU*mU has a documented # Sites in PHH of 2
